B1: glmS ribozyme (parent)
chain: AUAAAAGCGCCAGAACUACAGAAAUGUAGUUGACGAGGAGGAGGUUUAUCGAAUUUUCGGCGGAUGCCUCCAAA

- Variants of: B1
- measurement_protocol: self-cleavage kobs at 10000 uM GlcN6P; higher = faster cleavage; RNA array
- conditions: with glucosamine-6-phosphate
Fewer inactive variants are shown than the library holds.
quantity_kind: self-cleavage kobs at 10000 uM GlcN6P

variant: A12C A48C
observed_measurement: 0.000111 s⁻¹
//
variant: A39G U57A C68U
observed_measurement: 0.000176 s⁻¹
//
variant: A6G C16G C50G
observed_measurement: 5.57e-05 s⁻¹
//
variant: U56C C61U
observed_measurement: < 1e-05 s⁻¹
//
variant: U46G C67G
observed_measurement: 0.000295 s⁻¹
//
variant: G35U A36G U45C U65G
observed_measurement: < 1e-05 s⁻¹
//
variant: C10G G32A
observed_measurement: < 1e-05 s⁻¹
//
variant: A6G U57G
observed_measurement: < 1e-05 s⁻¹
//
variant: C10U C11G A33U
observed_measurement: < 1e-05 s⁻¹
//
variant: G40C G44C
observed_measurement: < 1e-05 s⁻¹
//
variant: A6C U31C G35A A42C
observed_measurement: < 1e-05 s⁻¹
//
variant: U56G
observed_measurement: 0.0313 s⁻¹
//
variant: G37A G38A
observed_measurement: < 1e-05 s⁻¹
//
variant: G29A C58U
observed_measurement: 4.95e-05 s⁻¹
//
variant: A36C G62C
observed_measurement: < 1e-05 s⁻¹
//
variant: G62A C67A
observed_measurement: < 1e-05 s⁻¹
//
variant: C8A C16U G38A
observed_measurement: < 1e-05 s⁻¹
//
variant: A6G A36C G51A
observed_measurement: < 1e-05 s⁻¹
//
variant: C10A G38U G40A
observed_measurement: < 1e-05 s⁻¹
//
variant: A53G C58A
observed_measurement: 0.0005 s⁻¹
//
variant: A48G C68G
observed_measurement: 5.84e-05 s⁻¹
//
variant: G7C G35A
observed_measurement: < 1e-05 s⁻¹
//
variant: C16G U56C
observed_measurement: 0.000354 s⁻¹
//
variant: U47G G59U
observed_measurement: 2.13e-05 s⁻¹
//
variant: C67G C70A
observed_measurement: < 1e-05 s⁻¹
//
variant: A14U G38C
observed_measurement: < 1e-05 s⁻¹
//
variant: A39G A53C C70A
observed_measurement: 0.000165 s⁻¹
//
variant: G7U G9C
observed_measurement: < 1e-05 s⁻¹
//
variant: A42C G59C
observed_measurement: < 1e-05 s⁻¹
//
variant: G41A G60U
observed_measurement: < 1e-05 s⁻¹
//
variant: C16G G41U
observed_measurement: 0.000107 s⁻¹
//
variant: A52U U54C
observed_measurement: 0.000462 s⁻¹
//
variant: A6U C10G A42G C50G C67A C70A
observed_measurement: 9.95e-05 s⁻¹
//
variant: A12C A15C
observed_measurement: 0.00216 s⁻¹
//
variant: A14C G29U G38U G44A A64U
observed_measurement: < 1e-05 s⁻¹

Just for reference, the supplement of paper PMC7125110 is where these values come from.
